Tested on: hiPSC-CMs
procedure summary: Cardio-NLCS impedance and extracellular field potential (EFP) recording
Format: cell-based, human
experimental setup: 2, 10, 50 μM, 24 h recording
quantity: Contractile amplitude (amplitude of IMP) vs the control group (in words)

INSERT INTO assay_data (compound_structure, assayed_target, result) VALUES
  ('O=c1cccc2n1C[C@@H]1CNC[C@H]2C1', 'hiPSC-CMs', 'upward trend'),
  ('O=C1CCC[C@@H]2[C@H]3CCCN4CCC[C@@H](CN12)[C@@H]34', 'hiPSC-CMs', 'upward trend');

---

For each of the compounds below, state its Amplitude (EFP): initial time of significant change compare with the control group.
System: hiPSC-CMs
procedure summary: Cardio-NLCS impedance and extracellular field potential (EFP) recording
Assay type: cell-based, human
experimental setup: at the lowest effective concentration
Give your result in h as a bare value.

Sample O=C1C=CC[C@@H]2[C@H]3CCCN4CCC[C@@H](CN12)[C@@H]34 ; Amplitude (EFP): initial time of significant change compare with the control group observed: 16

Sample O=c1cccc2n1C[C@@H]1CNC[C@H]2C1 ; Amplitude (EFP): initial time of significant change compare with the control group observed: 16

Sample O=C1CCC[C@@H]2[C@H]3CCCN4CCC[C@@H](CN12)[C@@H]34 ; Amplitude (EFP): initial time of significant change compare with the control group observed: 20

Sample O=C1CCC[C@@H]2[C@H]3CCC[N+]4([O-])CCC[C@@H](CN12)[C@@H]34 (stereo partly shown) ; Amplitude (EFP): initial time of significant change compare with the control group observed: 12
